Where these numbers come from: ChEMBL document CHEMBL3217515

- TESTED SYSTEM: Dual specificity tyrosine-phosphorylation-regulated kinase 1A (Homo sapiens, UniProt Q13627)
QUANTITY: pIC50
Give bare numbers, as −log10 of the molar value.

Batch lookup, pIC50 per entry.
1. COc1ccc2[nH]c(-c3cccc(O)c3)c(-c3ccncc3)c2n1
2. COc1ccc2[nH]c(-c3ccc(O)cc3)c(-c3ccncc3)c2n1
3. COc1ccc2[nH]c(-c3cccc(F)c3)c(-c3ccncc3)c2n1
4. COc1ccc2[nH]c(-c3ccc4cc(O)ccc4c3)c(-c3ccncc3)c2n1

Return:
[6.15, 6.33, 5.74, 6.08]

Batch lookup, pIC50 per entry.
1. COc1ccc2[nH]c(-c3ccccc3)c(-c3ccncc3)c2n1
2. COc1ccc2[nH]c(-c3ccccc3O)c(-c3ccncc3)c2n1

Return:
[5.89, 6.64]

----------
For reference, IC50 measured on RAF proto-oncogene serine/threonine-protein kinase (Homo sapiens, UniProt P04049):

- SMILES NOTATION: "COc1ccc2[nH]c(-c3ccc4cc(O)ccc4c3)c(-c3ccncc3)c2n1"
  IC50: "> 50 µM"

Attention now turns to another entry.
Enquiry: I am curious: what IC50 value has been reported for COc1ccc2[nH]c(-c3cccc(O)c3)c(-c3ccccn3)c2n1 ?
Return: 9.2 µM

----------
For reference, IC50 measured on Glycogen synthase kinase-3 beta (Homo sapiens, UniProt P49841):

- SMILES NOTATION: "COc1ccc2[nH]c(-c3cccc(O)c3)c(-c3ccccn3)c2n1"
  IC50: "> 10 µM"
- SMILES NOTATION: "COc1ccc2[nH]c(-c3cccc(F)c3)c(-c3ccncc3)c2n1"
  IC50: "> 10 µM"

Attention now turns to another entry.
Enquiry: I am curious: what IC50 value has been reported for COc1ccc2[nH]c(-c3cccc(O)c3)c(-c3ccncc3)c2n1 ?
Return: > 10 µM

----------
- TESTED SYSTEM: Dual specificity tyrosine-phosphorylation-regulated kinase 1A (Homo sapiens, UniProt Q13627)
pIC50: −log10 of the molar value.
Would you mind telling me the reported pIC50 of each entry?

Batch lookup, pIC50 per entry.
1. COc1ccc2[nH]c(-c3cccc(O)c3)c(-c3ccccn3)c2n1
2. COc1ccc2[nH]c(-c3cccc(O)c3)c(-c3cccnc3)c2n1
3. COc1ccc2[nH]c(-c3cc(O)cc(O)c3)c(-c3ccncc3)c2n1

Return:
< 5.00
< 5.00
< 5.00
